tested on: IGROV-ET; assay: SRB colorimetric assay of cell growth and viability, IGROV-ET; format: cell-based, human; settings: 48 hours exposure
Where a SMILES comes first, the peptide text is derived from it. Bridges are numbered along the chain shown (N, C = ends). [ ]: non-standard residue; d: D form. The star is where a group is joined. d(aIle) = CC[C@H](C)[C@@H](N)C(=O)O; d(aThr) = C[C@@H](O)[C@@H](N)C(=O)O; Hexanoyl(5-Me) = CC(C)CCCC(=O)*; Orn = NCCC[C@H](N)C(=O)O; Dhb = C/C=C(\N)C(=O)O
ASSAY ENDPOINT: GI50 (µM)
Note: unit µM is implicit; provide only the numeric part.

stdin: Quick check: GI50 of C/C=C1\NC(=O)[C@H](Cc2ccccc2)NC(=O)[C@@H](C(C)C)NC(=O)[C@@H]([C@@H](C)CC)NC(=O)[C@H](NC(=O)[C@H](NC(=O)[C@H](CCCN)NC(=O)[C@H]2CCCN2C(=O)[C@H](NC(=O)CNC(=O)[C@@H](NC(=O)[C@H](NC(=O)CCCC(C)C)C(C)C)[C@@H](C)O)C(C)C)[C@@H](C)CC)[C@@H](C)OC(=O)[C@H](C(C)C)NC1=O [Compound 42, [Gly^11]-KF] ({Hexanoyl(5-Me)}-[dV]TG[dV][dP][Orn][d(aIle)][d(aThr)][d(aIle)][dV]F[Dhb]V; ester 8-C) ?
stdout: 6.96

stdin: Same for C/C=C1\NC(=O)[C@H](Cc2ccccc2)NC(=O)[C@@H](C(C)C)NC(=O)[C@@H]([C@@H](C)CC)NC(=O)[C@H](NC(=O)[C@H](NC(=O)[C@H](CCCN)NC(=O)[C@H]2CCCN2C(=O)[C@H](NC(=O)[C@@H](NC(=O)[C@@H](NC(=O)[C@H](NC(=O)CCCCC(C)(F)F)C(C)C)[C@@H](C)O)C(C)C)C(C)C)[C@@H](C)CC)[C@@H](C)OC(=O)[C@H](C(C)C)NC1=O [Compound 28, [6,6-dFHep^14]-KF]
stdout: 0.228

stdin: Same for C/C=C1\NC(=O)[C@H](Cc2ccccc2)NC(=O)[C@@H](C(C)C)NC(=O)[C@@H]([C@@H](C)CC)NC(=O)[C@H](NC(=O)[C@H](NC(=O)[C@H](CCCN)NC(=O)[C@H]2CCCN2C(=O)[C@H](NC(=O)[C@@H](NC(=O)CNC(=O)CCCC(C)C)C(C)C)C(C)C)[C@@H](C)CC)[C@@H](C)OC(=O)[C@H](C(C)C)NC1=O [Compound 53, [Gly^12, noD-Val^13]-KF] ({Hexanoyl(5-Me)}-GV[dV][dP][Orn][d(aIle)][d(aThr)][d(aIle)][dV]F[Dhb]V; ester 7-C)
stdout: 3.31

stdin: Same for C/C=C1\NC(=O)[C@H](Cc2ccccc2)NC(=O)[C@@H](C(C)C)NC(=O)[C@@H]([C@@H](C)CC)NC(=O)[C@H](NC(=O)[C@H](NC(=O)[C@H](CCCN)NC(=O)[C@H]2CCCN2C(=O)[C@H](NC(=O)[C@H](NC(=O)[C@@H](NC(=O)[C@H](NC(=O)CCCC(C)C)C(C)C)[C@@H](C)O)C(C)C)C(C)C)[C@@H](C)CC)[C@@H](C)OC(=O)[C@H](C(C)C)NC1=O [Compound 46, [D-Val^11]-KF]
stdout: 1.67
